targetOrTestSystem: UniProt P11229
Sequence (P11229 1-460): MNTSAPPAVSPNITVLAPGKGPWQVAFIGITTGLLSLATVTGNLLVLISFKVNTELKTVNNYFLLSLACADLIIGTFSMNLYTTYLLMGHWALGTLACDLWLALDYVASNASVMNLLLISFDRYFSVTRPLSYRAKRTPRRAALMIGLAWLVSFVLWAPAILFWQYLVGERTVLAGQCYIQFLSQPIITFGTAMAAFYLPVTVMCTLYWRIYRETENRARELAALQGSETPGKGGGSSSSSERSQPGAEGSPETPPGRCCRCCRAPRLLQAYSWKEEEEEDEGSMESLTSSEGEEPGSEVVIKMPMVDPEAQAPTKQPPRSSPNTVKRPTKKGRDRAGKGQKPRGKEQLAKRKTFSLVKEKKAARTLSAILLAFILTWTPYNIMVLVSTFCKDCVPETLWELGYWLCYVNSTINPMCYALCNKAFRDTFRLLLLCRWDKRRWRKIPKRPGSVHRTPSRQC
experimentalProtocol: mAChR M1 cell-based functional assay (calcium mobilization, PAM activity)
studyConditions: CHO-K1 cells expressing hM1; calcium flux (Fluo-4); potentiation of EC20 acetylcholine response
propertyMeasured: Emax (%)
Express the result in % but write the number alone.

Asked: Fill in Emax for Cn1ccc(-c2ccc(Cc3cc(C(=O)N[C@@H]4CCC[C@H]4O)c4nccn4c3)cc2)n1 [compound 4] tested with UniProt P11229.
Given back: 80

Asked: Provide UniProt P11229 Emax reading for Cn1ccc(-c2ccc(Cc3cc(C(=O)N[C@H]4CCOC[C@@H]4O)c4ncnn4c3)cn2)n1 [compound 27] .
Given back: 78

Asked: State measured Emax of the compound Cn1ccc(-c2ccc(Cc3cc(C(=O)N[C@H]4CCC[C@@H]4O)c4nccn4c3)c(F)c2)n1 [compound 59] with UniProt P11229.
Given back: 79
